Measured normalized growth, listed per entry.
Test: chemical genetic growth profiling, strain panel (AID 1159580);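 note: tested at 20 µM; growth read once vehicle control cultures reached saturation at 30 °C; 1 = growth at the plate median or of vehicle wells; lower values mean less growth of the strain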
Settings: S. cerevisiae deletion strains, growth OD, locus YOL147C, strain pex11, stronger effect = lower value
Hit rate of the full screen: of about 5,500 compounds, about 2,000 (36%) were called active. About 18% were inconclusive and are not listed. This is one part of the list.
Number only, please.

Worked cases, normalized growth given:
{"columns": ["Compound", "Measured result"],
 "data": [
  ["CN(C)CC/C=C1\\c2ccccc2Sc2ccc(Cl)cc21", 1.02],
  ["COc1cc2c(cc1OC)C1C(=O)c3c(OC)cc4c(c3OC1CO2)CCC(C)(C)O4 (centres undefined)", 0.988],
  ["CN(C)C(=S)SSC(=S)N(C)C", 0.0594],
  ["CCOC(=O)C(Cc1ccc(O)cc1)NC(C)=O (centres undefined)", 0.997],
  ["CCC(C)C(OC(C)=O)C(=O)OC1C(O)C2C3(C)C=CC(=O)C(C)(C)C3CC(OC(=O)C(O)C(C)C)C2(C)C23OC2CC(c2ccoc2)C13C (centres undefined)", 0.999],
  ["O=C(O)C1(O)C[C@@H](O)C(O)[C@H](O)C1 (some centres undefined)", 1.02]
]}

Asked: GET /values?readout=normalized growth&item= C=C1C([C@]2(C)C(CC(=O)OC)[C@@](C)(COC(C)=O)OC(=O)C[C@@H]2OC(C)=O)[C@@H](OC=O)[C@H](OC(=O)C(O)C(C)CC)[C@@]2(C)[C@H](c3ccoc3)CC(=O)C12O (some centres undefined)
Given back: 1.01

Asked: # normalized growth lookup, item COc1cc2c(cc1OC)Cc1cc(OC)c(OC)cc1Cc1cc(OC)c(OC)cc1C2
Given back: 1.02

Asked: Which normalized growth is listed for CC1CC2C3CC(F)C4=CC(=O)C=CC4(C)C3(F)C(O)CC2(C)C1(O)C(=O)CO (centres undefined) ?
Given back: 1.02

---

Assay: chemical genetic growth profiling, strain panel (AID 1159580);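 note: tested at 20 µM; growth read once vehicle control cultures reached saturation at 30 °C; 1 = growth at the plate median or of vehicle wells; lower values mean less growth of the strain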
Details: S. cerevisiae deletion strains, growth OD, locus YLR342W, strain FKS1 (second series)
The campaign covered roughly 5,500 compounds. About 2,000 (36%) were called active. Another 18% or so got no clear call; they are omitted. Cut-off read from the data, not from the text of the source: active = normalized growth mostly below about 0.91 (no sharp cut-off); inconclusive = no clear call, values can overlap the other calls; inactive = mostly above about 0.92. The list shows a part of the results.
Pick one and only one: yes for active, no for inactive

{"columns": ["Compound", "Label value"],
 "data": [
  ["CC(Oc1ccccc1)C(=O)N[C@@H]1C(=O)N2[C@@H]1SC(C)(C)[C@@H]2C(=O)O (some centres undefined)", "no"]
]}

Asked: # lookup: test call for CC(C(=O)O)c1cccc(C(=O)c2ccccc2)c1 (centres undefined)
Given back: no

Asked: I'd appreciate the recorded outcome for CCC(=O)O[C@H]1[C@H](O[C@@H]2[C@@H](C)[C@H](O[C@H]3C[C@@](C)(OC)[C@@H](O)[C@H](C)O3)[C@@H](C)C(=O)O[C@H](CC)[C@@](C)(O)[C@H](O)[C@@H](C)C(=O)[C@H](C)C[C@@]2(C)O)O[C@H](C)C[C@@H]1N(C)C from this test.
Given back: no

Asked: // param item: CCN(CC)CCCC(C)Nc1c2ccc(Cl)cc2nc2ccc(OC)cc12 (centres undefined) ; yields the recorded call
Given back: yes

Asked: Hi team, can someone confirm the assay call for CCOC(=O)CCC(=O)O[C@H]1[C@H](O[C@@H]2[C@@H](C)[C@H](O[C@H]3C[C@@](C)(OC)[C@@H](O)[C@H](C)O3)[C@@H](C)C(=O)O[C@H](CC)[C@@](C)(O)[C@H](O)[C@@H](C)C(=O)[C@H](C)C[C@@]2(C)O)O[C@H](C)C[C@@H]1N(C)C ?
Given back: no
